- SYSTEM TESTED: NHERF2_2, Q15599
- Sequence (Q15599 142-238): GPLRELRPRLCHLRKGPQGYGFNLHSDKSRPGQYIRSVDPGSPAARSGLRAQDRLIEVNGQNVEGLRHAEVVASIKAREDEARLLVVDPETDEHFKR
- EXPERIMENT DESCRIPTION: holdup assay
- Design: key: below the threshold = too weak to quantify, mostly under pKd 3.1 to 4
- EXPERIMENTAL PARAMETERS: plain residues with an end cap or a label only (N-terminal biotin on a linker: ahx)
OBSERVATION TYPE: pKd

Study these solved cases before continuing.
{"columns": ["BINDER", "pKd"],
 "data": [
  ["RRRKRKRTYL [HPV49-L2, P36762]", 3.49],
  ["ESLLLGPSNF [SHROOM4, Q9ULL8]", "below the threshold"],
  ["HNAFLSVTTV [PDZRN4, Q6ZMN7]", "below the threshold"],
  ["SDSSGQEYSL [KCTD3, Q9Y597]", "below the threshold"],
  ["LSDPSVSTVV [GRIN1, Q05586;Q05586-2]", "below the threshold"]
]}

INPUT: Can you share its pKd? I mean this binder: NRKREIFSNF [NHERF2, Q15599]
OUTPUT: below the threshold

INPUT: Same question, PSASCAVTAA [PDLIM4, P50479;P50479-2] this time
OUTPUT: below the threshold
